The values you see were collected from ChEMBL document CHEMBL5291721.

Quick record of AC50 values for Melanocortin receptor 4 (Homo sapiens, UniProt P32245).

Field: example entries. Status: answers known.
compound: CC1(C)O[C@@H]2[C@@H](CO[C@@]3(COS(N)(=O)=O)OC(C)(C)O[C@@H]23)O1 [TOPIRAMATE]
metric: AC50
observed.value: > 30 µM

compound: N[C@H](Cc1cc(I)c(Oc2cc(I)c(O)c(I)c2)c(I)c1)C(=O)O [DEXTROTHYROXINE]
metric: AC50
observed.value: > 30 µM

compound: CC#CCn1c(N2CCC[C@@H](N)C2)nc2c1c(=O)n(Cc1nc(C)c3ccccc3n1)c(=O)n2C [LINAGLIPTIN]
metric: AC50
observed.value: 41.8 µM

compound: Nc1ccn([C@@H]2O[C@H](CO)[C@@H](O)C2(F)F)c(=O)n1 [GEMCITABINE]
metric: AC50
observed.value: > 30 µM

compound: Cc1cnc(NC(=O)C2=C(O)c3ccccc3S(=O)(=O)N2C)s1 [MELOXICAM]
metric: AC50
observed.value: > 30 µM

compound: [H]/N=C(\N/C(=N/[H])NCCCCCCNC(=N)NC(=N)Nc1ccc(Cl)cc1)Nc1ccc(Cl)cc1 [CHLORHEXIDINE]
metric: AC50
observed.value: 0.271 µM

Q: Quote AC50 with test system Melanocortin receptor 4 (Homo sapiens, UniProt P32245) for Cc1cccc(N(C)C(=S)Oc2ccc3ccccc3c2)c1 [TOLNAFTATE]; also: assay procedure not described here
Result: > 10 µM

Q: Quote AC50 with test system Melanocortin receptor 4 (Homo sapiens, UniProt P32245) for CC(=O)OCC(CCn1cnc2cnc(N)nc21)COC(C)=O [FAMCICLOVIR]; also: assay procedure not described here
Result: > 30 µM

Q: Quote AC50 with test system Melanocortin receptor 4 (Homo sapiens, UniProt P32245) for CCc1oc2ccccc2c1C(=O)c1cc(Br)c(O)c(Br)c1 [BENZBROMARONE]; also: assay procedure not described here
Result: > 30 µM
